- tested-target: SARM1 SAM-TIR (Homo sapiens);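 also: inhibition of SARM1 SAM-TIR NADase activity, i.e. NAD+ cleavage, using lysate of NRK1-HEK293T cells overexpressing the SAM-TIR fragment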
- Construct: a fragment of the SARM1 molecule encompassing the SAM and TIR domains; made in house; host or cells: NRK1-HEK293T cells, transiently transfected; the cleared, unpurified lysate was used as the enzyme
- Sequence (Q6SZW1 409-724 limits assumed): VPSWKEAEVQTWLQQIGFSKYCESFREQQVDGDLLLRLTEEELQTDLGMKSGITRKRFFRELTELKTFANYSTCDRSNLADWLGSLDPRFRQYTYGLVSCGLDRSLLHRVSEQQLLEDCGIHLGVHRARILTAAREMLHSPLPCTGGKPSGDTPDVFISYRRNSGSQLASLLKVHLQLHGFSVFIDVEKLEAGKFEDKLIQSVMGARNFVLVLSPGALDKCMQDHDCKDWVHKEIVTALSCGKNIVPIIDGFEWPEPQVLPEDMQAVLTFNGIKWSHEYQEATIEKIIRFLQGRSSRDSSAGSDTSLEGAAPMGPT
- measurement-notes: biochemical
- assay-conditions: SAM-TIR lysate 5 μg/mL, 2 h pre-incubation, 5 μM NAD+, RapidFire MS of NAD+ and ADPR; read-out: SARM1 IC50
pIC50: −log10 of the molar value.
attribute-measured: pIC50

// worked examples, pIC50 included
molecule="Cc1cc(C)n2c1CC1C=CC(CCC(=O)NCCCCCn3sc(Nc4ccccc4C(F)(F)F)c(C#N)c3=O)=[N+]1[B-]2(F)F (stereo not shown)" experimental_value="5.30 to 6.00"
molecule=COCCN(C)C(=O)c1c(Nc2ccccc2C(F)(F)F)sn([C@@H](C)c2ccccc2)c1=O experimental_value="< 5.30"
molecule=N#Cc1c(O)nsc1Nc1ccc(Cl)c(Cl)c1 experimental_value="5.30 to 6.00"
molecule=N#Cc1c(Nc2cccc(C3CCNCC3)c2C(F)(F)F)s[nH]c1=O experimental_value="< 5.30"
molecule=N#Cc1c(O)nsc1Nc1ccc(Cl)cc1Cl experimental_value="> 6.00"

Task: I am curious: what pIC50 value has been reported for COc1cccc(C(F)(F)F)c1Nc1s[nH]c(=O)c1C#N ?
Result: > 6.00

Task: State the recorded pIC50 for this entry: COC(C)(C)Cn1sc(Nc2ccccc2C(F)(F)F)c(C#N)c1=O
Result: > 6.00

Task: Entry COCCn1sc(Nc2c(Cl)ccc3ncccc23)c(C#N)c1=O : reported pIC50 = ?
Result: > 6.00

Task: Fill in: pIC50 of COC(C)(C)Cn1sc(Nc2c(Cl)cccc2Cl)c(C#N)c1=O is ___
Result: > 6.00

Task: // lookup pIC50 for CN(C)CCn1sc(Nc2ccccc2C(F)(F)F)c(C#N)c1=O
Result: > 6.00
